Biological target: Recombinant human MAO-A (Homo sapiens, UniProt P21397)
Construct: purchased BD Biosciences (MA, USA)
Sequence (P21397 whole entry): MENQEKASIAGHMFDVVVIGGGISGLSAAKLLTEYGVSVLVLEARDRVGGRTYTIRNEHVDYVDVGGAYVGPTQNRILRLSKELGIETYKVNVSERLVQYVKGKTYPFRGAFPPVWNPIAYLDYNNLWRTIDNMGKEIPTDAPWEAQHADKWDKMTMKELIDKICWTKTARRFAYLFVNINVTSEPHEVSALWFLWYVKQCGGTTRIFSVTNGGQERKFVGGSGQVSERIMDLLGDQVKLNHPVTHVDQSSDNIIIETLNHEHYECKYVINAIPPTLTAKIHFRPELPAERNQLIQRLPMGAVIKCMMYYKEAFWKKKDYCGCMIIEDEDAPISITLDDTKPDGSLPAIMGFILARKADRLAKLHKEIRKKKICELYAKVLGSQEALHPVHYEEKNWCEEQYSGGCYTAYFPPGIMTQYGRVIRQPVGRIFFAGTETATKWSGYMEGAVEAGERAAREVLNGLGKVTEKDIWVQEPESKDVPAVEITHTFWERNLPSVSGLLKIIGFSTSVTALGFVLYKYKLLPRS
Assay: MAO-A activity, colorimetric method, tyramine substrate
Assay type: biochemical
Details: ratio of IC50 for MAO-A to IC50 for SSAO
Flag rule - Specificity of SSAO on MAO-A less than 8000 flags Criterion met; the remaining entries get Criterion not met.

Reference set (3 entries):
                       smiles_entry                           subject_of_test           category
0       CCOc1ccc(C/C(=C\F)CN)cc1.Cl  Recombinant human MAO-A (Homo sapiens, UniProt P21397)  Criterion not met
1     CC(C)c1ccc(C/C(=C\F)CN)cc1.Cl  Recombinant human MAO-A (Homo sapiens, UniProt P21397)      Criterion met
2  CC(C)(C)c1ccc(C/C(=C/F)CN)cc1.Cl  Recombinant human MAO-A (Homo sapiens, UniProt P21397)  Criterion not met

Next, consider the following compound.
Query: Given the entry NC/C(=C\F)CCc1cc(F)cc(C(F)(F)F)c1.O=C(O)C(F)(F)F , would its reported Specificity of SSAO on MAO-A be below 8000?
Reply: Criterion met

* * *

Target: Recombinant human MAO-A (Homo sapiens)
Construct: purchased BD Biosciences (MA, USA)
Test: MAO-A activity, colorimetric method, tyramine substrate
Format: biochemical
Details: ratio of IC50 for MAO-A to IC50 for SSAO
Where a name gives a salt, the structure may show the parent alone.
Readings of Specificity of SSAO on MAO-A for the listed molecules

In [3]: df
Out[3]:
                                   molecule  result_value
0      CSc1cccc(C/C=C(/F)CN)c1.Cl [II-13-E]        100000
1        COc1cccc(OC/C=C(/F)CN)c1 [II-19-E]         >6250
2  CS(=O)(=O)c1cccc(C/C=C(/F)CN)c1.Cl [II-14-E]         14290
3  COc1cccc(C/C(C)=C(/F)CN)c1 [II-18-E, hydrochloride]         >3448

Query: GET /values?readout=Specificity of SSAO on MAO-A&item= CCCCOc1ccc(CC/C(=C\Cl)CN)cc1.Cl [Compound I-47-E]
Reply: 794

Query: GET /values?readout=Specificity of SSAO on MAO-A&item= Cl.NC/C(F)=C\Cc1cccc(F)c1 [II-7-E]
Reply: 4545

Query: GET /values?readout=Specificity of SSAO on MAO-A&item= NC/C(=C\Cl)CCc1cc(F)cc(C(F)(F)F)c1.O=C(O)C(F)(F)F [Compound I-40-Z]
Reply: 687

Query: GET /values?readout=Specificity of SSAO on MAO-A&item= NC/C(=C\F)CCc1ccc(F)cc1 [Compound I-99-Z]
Reply: 177

Query: GET /values?readout=Specificity of SSAO on MAO-A&item= CN(C)c1cccc(C/C=C(/F)CN)c1.Cl [II-11-E]
Reply: 2600

Query: GET /values?readout=Specificity of SSAO on MAO-A&item= CC(C)c1ccc(C/C(=C/F)CN)cc1.Cl [Compound I-14-Z]
Reply: 11250

* * *

Where a name gives a salt, the structure may show the parent alone.
Readings of melting point for the listed compounds

Query: GET /values?readout=melting point&item= CCOc1ccc(CC/C(=C\Cl)CN)cc1.Cl
Reply: 104 to 106 °C

Query: GET /values?readout=melting point&item= Cc1cccc(CC/C(=C\Cl)CN)c1.Cl
Reply: 95 to 97 °C

Query: GET /values?readout=melting point&item= Cl.NC/C(F)=C\Cc1cccc(SC(F)(F)F)c1
Reply: 188 to 189 °C

Query: GET /values?readout=melting point&item= NC/C(=C\F)Cc1cc(Cl)cc(Cl)c1 (as salt: hydrochloride)
Reply: 184 to 185 °C

Query: GET /values?readout=melting point&item= NC/C(=C/Cl)CCc1ccc(Cl)cc1.O=C(O)C(F)(F)F
Reply: 68 to 70 °C

Query: GET /values?readout=melting point&item= COc1ccc(CC/C(=C/F)CN)cc1.Cl
Reply: 94 to 95 °C

Query: GET /values?readout=melting point&item= CS(=O)(=O)c1cccc(C/C=C(/F)CN)c1.Cl
Reply: 196 to 197 °C

Query: GET /values?readout=melting point&item= COc1cccc(C/C(=C/F)CN)c1.Cl
Reply: 119 to 120.5 °C

Query: GET /values?readout=melting point&item= CSc1cccc(C/C=C(/F)CN)c1.Cl
Reply: 192 to 193 °C

Query: GET /values?readout=melting point&item= CSc1ccc(C/C(=C/F)CN)cc1.Cl
Reply: 144 to 146 °C

* * *

Target: Human SSAO (Homo sapiens)
Construct: rat lung or human umbilical cord homogenates were prepared by chopping the freshly removed tissue; from tissue; host or cells: human umbilical cord homogenate (25,000 g supernatant)
Assay: In vitro inhibition of SSAO activity, human umbilical cord homogenate, 14C-benzylamine
Type: biochemical
Conditions: human umbilical cord homogenate; read-out: Human SSAO IC50
Labels assigned by IC50 range: range 1 (below 30 nM), range 2 (30 nM to below 300 nM), range 3 (300 nM or more)

Reference set (3 entries):
>>> print(df.to_string())
                                   molecule            subject_of_test  category
0                   NC/C(=C\F)CCc1ccc(F)cc1  Human SSAO (Homo sapiens)   range 2
1  Cc1cccc(C/C=C(/F)CN)c1.Cl [II-6-E, hydrochloride]  Human SSAO (Homo sapiens)   range 2
2  CC(C)(C)c1ccc(C/C(=C/F)CN)cc1.Cl [Compound I-15-Z, hydrochloride]  Human SSAO (Homo sapiens)   range 1

Query: Each molecule maps to one class by IC50. Which class for CCOc1ccc(C/C(=C/F)CN)cc1.Cl [Compound I-2-Z, hydrochloride] ?
Reply: range 1

Query: Each molecule maps to one class by IC50. Which class for Cl.NC/C(F)=C\Cc1cccc(SC(F)(F)F)c1 [II-15-E, hydrochloride] ?
Reply: range 1

Query: Each molecule maps to one class by IC50. Which class for COc1cccc(CC/C(=C\Cl)CN)c1.Cl [Compound I-49-E, hydrochloride] ?
Reply: range 3

Query: Each molecule maps to one class by IC50. Which class for NC/C(=C\F)CCc1cc(F)cc(C(F)(F)F)c1.O=C(O)C(F)(F)F [Compound I-109-Z, trifluoroacetate] ?
Reply: range 2

Query: Each molecule maps to one class by IC50. Which class for Cl.NC/C(=C\F)Cc1cccc(F)c1 [Compound I-19-Z, hydrochloride] ?
Reply: range 1

* * *

Readings of melting point for the listed compounds
Counter-ions that a name gives are not always drawn.

A selection of reference data follows.
                                   compound   result_value
0                COc1cccc(C/C=C(/F)CN)c1.Cl  175 to 176 °C
1  Cc1cccc(CC/C(=C/Cl)CN)c1 (as salt: hydrochloride)  102 to 103 °C
2  NC/C(=C\F)Cc1ccc(-c2ccccc2)cc1 (as salt: hydrochloride)  219 to 220 °C
3  Cc1cc(C/C(=C/F)CN)ccc1F (as salt: hydrochloride)  158 to 159 °C
4          CC(C)(C)c1ccc(C/C(=C/F)CN)cc1.Cl  155 to 156 °C

Now turn to the next compound.
Query: GET /values?readout=melting point&item= COc1cccc(CC/C=C(/F)CN)c1.Cl
Reply: 112 to 113 °C

* * *

Readings of pIC50 for the listed compounds
Biological target: Human SSAO (Homo sapiens, UniProt Q16853)
Construct: rat lung or human umbilical cord homogenates were prepared by chopping the freshly removed tissue; from tissue; host or cells: human umbilical cord homogenate (25,000 g supernatant)
Sequence (Q16853 1-763): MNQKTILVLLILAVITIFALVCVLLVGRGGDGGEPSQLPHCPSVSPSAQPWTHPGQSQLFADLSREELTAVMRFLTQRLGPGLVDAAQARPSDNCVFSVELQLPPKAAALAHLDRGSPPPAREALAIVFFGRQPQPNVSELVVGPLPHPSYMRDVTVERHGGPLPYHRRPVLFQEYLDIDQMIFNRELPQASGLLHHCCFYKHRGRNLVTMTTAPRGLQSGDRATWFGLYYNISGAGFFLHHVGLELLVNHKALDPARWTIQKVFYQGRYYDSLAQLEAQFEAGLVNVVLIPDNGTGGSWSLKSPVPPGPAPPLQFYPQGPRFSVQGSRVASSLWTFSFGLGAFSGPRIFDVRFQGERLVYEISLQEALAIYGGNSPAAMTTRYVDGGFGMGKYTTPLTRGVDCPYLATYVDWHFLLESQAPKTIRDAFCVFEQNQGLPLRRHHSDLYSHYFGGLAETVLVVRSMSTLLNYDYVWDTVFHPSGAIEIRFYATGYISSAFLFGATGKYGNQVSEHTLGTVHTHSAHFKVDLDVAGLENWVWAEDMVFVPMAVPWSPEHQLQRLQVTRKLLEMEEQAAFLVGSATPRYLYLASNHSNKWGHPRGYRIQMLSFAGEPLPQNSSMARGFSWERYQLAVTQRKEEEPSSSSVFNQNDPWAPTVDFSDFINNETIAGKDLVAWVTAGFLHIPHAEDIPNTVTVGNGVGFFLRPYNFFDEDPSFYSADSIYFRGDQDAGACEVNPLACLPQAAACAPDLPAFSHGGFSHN
Test: In vitro inhibition of SSAO activity, human umbilical cord homogenate, 14C-benzylamine
Assay type: biochemical
Conditions: human umbilical cord homogenate; read-out: Human SSAO IC50
In textbook form, pIC50 equals minus log to base ten of the concentration in mol/L.

                                   compound                           subject_of_test  result_value
0  CC(C)c1ccc(C/C(=C/F)CN)cc1.Cl [Compound I-14-Z, hydrochloride]  Human SSAO (Homo sapiens, UniProt Q16853)          8.10
1  CSc1ccc(C/C(=C/F)CN)cc1.Cl [Compound I-9-Z, hydrochloride]  Human SSAO (Homo sapiens, UniProt Q16853)          7.92

Query: GET /values?readout=pIC50&item= COc1ccc(CC/C(=C\Cl)CN)cc1.Cl [Compound I-44-Z, hydrochloride]
Reply: 6.14
